For each record, write down the corresponding EC50.
# Experimental system: delF508-CFTR (Homo sapiens, UniProt P13569, DEL508-508)
# Construct: expressed in transfected cells
# Sequence (P13569 with tags, fused parts or gaps DEL508-508): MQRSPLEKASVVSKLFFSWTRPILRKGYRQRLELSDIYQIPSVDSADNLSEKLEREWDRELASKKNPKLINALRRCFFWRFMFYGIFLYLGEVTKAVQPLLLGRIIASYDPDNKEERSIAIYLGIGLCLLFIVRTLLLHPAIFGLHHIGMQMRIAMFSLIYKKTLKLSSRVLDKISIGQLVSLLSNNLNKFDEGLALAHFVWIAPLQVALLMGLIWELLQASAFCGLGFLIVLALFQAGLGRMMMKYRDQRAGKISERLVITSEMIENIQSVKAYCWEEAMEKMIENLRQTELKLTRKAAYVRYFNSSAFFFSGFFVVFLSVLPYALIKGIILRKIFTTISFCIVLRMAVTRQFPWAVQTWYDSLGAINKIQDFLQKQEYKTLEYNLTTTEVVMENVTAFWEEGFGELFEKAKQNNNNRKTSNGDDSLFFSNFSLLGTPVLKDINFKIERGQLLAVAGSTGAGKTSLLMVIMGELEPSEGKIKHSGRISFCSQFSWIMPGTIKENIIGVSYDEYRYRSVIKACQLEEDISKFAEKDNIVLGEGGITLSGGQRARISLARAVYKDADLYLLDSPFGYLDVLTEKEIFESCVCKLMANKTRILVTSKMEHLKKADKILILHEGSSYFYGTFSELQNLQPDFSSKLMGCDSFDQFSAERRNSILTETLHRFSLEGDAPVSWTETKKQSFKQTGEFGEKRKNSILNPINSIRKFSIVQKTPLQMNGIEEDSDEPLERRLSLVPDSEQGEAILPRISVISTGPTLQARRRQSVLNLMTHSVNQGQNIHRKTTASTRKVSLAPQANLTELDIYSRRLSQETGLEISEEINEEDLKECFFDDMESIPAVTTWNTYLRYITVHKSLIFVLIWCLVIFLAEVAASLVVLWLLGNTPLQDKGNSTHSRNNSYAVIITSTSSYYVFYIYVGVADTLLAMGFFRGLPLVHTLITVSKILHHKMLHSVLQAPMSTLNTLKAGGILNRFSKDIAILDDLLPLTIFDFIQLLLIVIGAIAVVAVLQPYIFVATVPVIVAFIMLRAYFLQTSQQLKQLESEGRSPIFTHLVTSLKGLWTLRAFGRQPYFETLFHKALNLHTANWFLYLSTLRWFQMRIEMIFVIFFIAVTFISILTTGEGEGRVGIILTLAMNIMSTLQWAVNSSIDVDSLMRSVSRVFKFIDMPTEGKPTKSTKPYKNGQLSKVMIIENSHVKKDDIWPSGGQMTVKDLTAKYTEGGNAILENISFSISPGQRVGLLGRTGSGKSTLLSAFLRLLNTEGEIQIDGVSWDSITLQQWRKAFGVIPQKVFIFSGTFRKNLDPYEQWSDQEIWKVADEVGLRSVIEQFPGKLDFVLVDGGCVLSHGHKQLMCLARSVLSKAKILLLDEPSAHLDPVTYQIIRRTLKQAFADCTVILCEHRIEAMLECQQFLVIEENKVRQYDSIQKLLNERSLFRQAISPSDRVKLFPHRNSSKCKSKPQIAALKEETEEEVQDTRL
# Assay details: delF508-CFTR functional activity in primary human bronchial epithelial cells (HBECs), Multi-Transepithelial Clamp Circuit (MTECC-24) assay
# Assay type: cell-based
# Test settings: primary human delF508-CFTR bronchial epithelial cells, 24 h with compound, equivalent short circuit current (Ieq), forskolin plus potentiator; mean of at least two replicates; read-out: MTECC24-CFHBEC EC50
One number for each entry, in nM.

Record EC50 for all entries; do not skip any.
1. Cc1ccccc1-c1nc(NS(=O)(=O)c2cccc(N(CCCC(=O)O)CC3CC3)n2)ccc1C(F)(F)F
2. CCCCN(CCCC(=O)O)c1cccc(S(=O)(=O)Nc2ccc(C(F)(F)F)c(-c3ccccc3C)n2)n1
3. CCN(CCC(=O)O)c1cccc(S(=O)(=O)Nc2ccc(C(F)(F)F)c(-c3ccccc3C(C)C)n2)n1
4. Cc1ccccc1-c1nc(NS(=O)(=O)c2cccc(N(CCC(=O)O)CC3CC3)n2)ccc1C(F)(F)F
5. CCN(CCC(=O)O)c1cccc(S(=O)(=O)Nc2ccc(C(F)(F)F)c(-c3ccccc3C3CC3)n2)n1
6. Cc1ccc(F)cc1-c1nc(NS(=O)(=O)c2cccc(N(CCC(=O)O)C(C)C)n2)ccc1C(F)(F)F
7. Cc1c(F)cccc1-c1nc(NS(=O)(=O)c2cccc(N(C)CCCCC(=O)O)n2)ccc1C(F)(F)F
8. CCCCN(CCCC(=O)O)c1cccc(S(=O)(=O)Nc2ccc(C(F)(F)F)c(-c3cc(F)ccc3C)n2)n1

Result ::
1: 73; 2: 104; 3: 68; 4: 61; 5: 105; 6: 65; 7: 161; 8: 131

###

# Experimental system: delF508-CFTR (Homo sapiens, UniProt P13569, DEL508-508)
# Construct: expressed in transfected cells
# Assay details: Measurement of delF508-CFTR-HRP surface expression in CFBE41o- cells
# Format: cell-based
# Test settings: efficacy relative to reference compound 3-(6-(1-(2,2-difluorobenzo[d][1,3]dioxol-5-yl)cyclopropane-1-carboxamido)-3-methylpyridin-2-yl)benzoic acid; CFBE41o- cells, 24 h; read-out: DelF508-CFTR-HRP Amax %
For each record, write down the corresponding Emax.

See these solved cases before continuing.
# Compound, Value type, Result
rows = [
    ("O=C(O)CC1CCN(c2cccc(S(=O)(=O)Nc3ccc(C(F)(F)F)c(-c4ccccc4C4CC4)n3)n2)C1 (stereo not drawn) [Compound 33]", "Emax", "320%"),
    ("Cc1c(F)cccc1-c1nc(NS(=O)(=O)c2cccc(N(C)CC(C)(C)C(=O)O)n2)ccc1C(F)(F)F [Compound 47]", "Emax", "496%"),
    ("Cc1ccccc1-c1nc(NS(=O)(=O)c2cccc(N(C)CCC(=O)O)n2)ccc1C(F)(F)F [Compound 34]", "Emax", "785%"),
    ("Cc1ccccc1-c1nc(NS(=O)(=O)c2cccc(N3CCC[C@@](C)(CC(=O)O)C3)n2)ccc1C(F)(F)F (single isomer, unassigned) [Compound 122]", "Emax", "785%"),
    ("Cc1ccc(F)cc1-c1nc(NS(=O)(=O)c2cccc(N(C)CC3(C(=O)O)CCOCC3)n2)ccc1C(F)(F)F [Compound 138]", "Emax", "463%"),
]

// moving on: another record for Emax
Sample Cc1ccccc1-c1nc(NS(=O)(=O)c2cccc(N3CCC(CCC(=O)O)CC3)n2)ccc1C(F)(F)F [Compound 79] , system: delF508-CFTR (Homo sapiens, UniProt P13569, DEL508-508). Its Emax is 330%
